Hello, the source for this data is patent US20260098013A1, in case you need it.

Below, each of the compounds is paired with its reported log10 AUC0-6 h value.
conditions: Sprague-Dawley, rat, in vivo, po, 6 mg/kg
Would you kindly interpret these values as log10 of AUC0-6 h expressed in ng·h/mL?

Field: example entries. Status: answers known.
Compound: CC(=O)N[C@@H](Cc1ccccc1)C(=O)Oc1ccc2c(c1)[C@]13CCCC[C@@H]1[C@H](C2)N(C)CC3 [3-(N-Ac-L-Phe)-dextrorphan]
log10 AUC0-6 h: 1.44
//
Compound: CC(=O)N[C@H](CCC(=O)O)C(=O)Oc1ccc2c(c1)[C@]13CCCC[C@@H]1C(C2)N(C)CC3 [3-(N-Ac-D-Glu)-dextrorphan]
log10 AUC0-6 h: 1.10
//
Compound: CC(=O)N[C@H](C(=O)Oc1ccc2c(c1)[C@]13CCCC[C@@H]1C(C2)N(C)CC3)C(C)C [3-(N-Ac-L-Val)-dextrorphan]
log10 AUC0-6 h: 1.49

QUERY: Quickly give me recorded log10 AUC0-6 h for CC[C@@H](C)[C@@H](NC(C)=O)C(=O)Oc1ccc2c(c1)[C@]13CCCC[C@@H]1C(C2)N(C)CC3 [3-(N-Ac-D-Ile)-dextrorphan]
RESULT: 2.47

QUERY: Input CC(=O)N[C@H](C)C(=O)Oc1ccc2c(c1)[C@]13CCCC[C@@H]1C(C2)N(C)CC3 [3-(N-Ac-D-Ala)-dextrorphan] , output reported log10 AUC0-6 h.
RESULT: 1.49

QUERY: Entry CC(C)[C@H](N)C(=O)N[C@H](C(=O)Oc1ccc2c(c1)[C@]13CCCC[C@@H]1C(C2)N(C)CC3)C(C)C [3-(L-Val-L-Val)-dextrorphan] needs its log10 AUC0-6 h filled in; supply it.
RESULT: 1.89

====

conditions: rat, in vivo, po
Result Type: oral dextrorphan bioavailability / exposure compared to dextrorphan tartrate

Smi: C[C@@H](N)C(=O)N[C@H](C)C(=O)Oc1ccc2c(c1)[C@]13CCCC[C@@H]1C(C2)N(C)CC3
Result: lower

====

conditions: Sprague-Dawley, rat, in vivo, po
Rule: Exposure Ratio AUC below 80% gives label 1. Equal to or above 80% gives label 0.

Compound: CC(=O)N[C@@H](C(=O)Oc1ccc2c(c1)[C@]13CCCC[C@@H]1C(C2)N(C)CC3)C(C)C [3-(N-Ac-D-Val)-dextrorphan]
Class Name: label 0
--
Compound: CC(=O)N[C@H](Cc1ccccc1)C(=O)Oc1ccc2c(c1)[C@]13CCCC[C@@H]1[C@H](C2)N(C)CC3 [3-(N-Ac-D-Phe)-dextrorphan]
Class Name: label 1
--
Compound: CC(=O)N[C@H](CCC(=O)O)C(=O)Oc1ccc2c(c1)[C@]13CCCC[C@@H]1C(C2)N(C)CC3 [3-(N-Ac-D-Glu)-dextrorphan]
Class Name: label 1
--
Compound: CC(C)[C@H](N)C(=O)N[C@H](C(=O)Oc1ccc2c(c1)[C@]13CCCC[C@@H]1C(C2)N(C)CC3)C(C)C [3-(L-Val-L-Val)-dextrorphan]
Class Name: label 0

QUERY: A record lists C[C@H](N)C(=O)N[C@@H](C)C(=O)Oc1ccc2c(c1)[C@]13CCCC[C@@H]1C(C2)N(C)CC3 [3-(L-Ala-L-Ala)-dextrorphan] . Is its Exposure Ratio AUC below 80%?
RESULT: label 0

QUERY: Say whether its Exposure Ratio AUC is strictly beneath 80%. Entry: CC[C@@H](C)[C@@H](NC(C)=O)C(=O)Oc1ccc2c(c1)[C@]13CCCC[C@@H]1C(C2)N(C)CC3 [3-(N-Ac-D-Ile)-dextrorphan]
RESULT: label 0

QUERY: Exposure Ratio AUC under 80%? Item: CC(=O)N[C@@H](C)C(=O)Oc1ccc2c(c1)[C@]13CCCC[C@@H]1C(C2)N(C)CC3 [3-(N-Ac-L-Ala)-dextrorphan]
RESULT: label 1

QUERY: Consider the compound CC(=O)N[C@H](C(=O)Oc1ccc2c(c1)[C@]13CCCC[C@@H]1C(C2)N(C)CC3)C(C)C [3-(N-Ac-L-Val)-dextrorphan] . Is its Exposure Ratio AUC strictly less than 80%?
RESULT: label 1

QUERY: # TODO verify Exposure Ratio AUC < 80% strictly for this compound: CC(=O)N[C@@H](CCC(=O)O)C(=O)Oc1ccc2c(c1)[C@]13CCCC[C@@H]1C(C2)N(C)CC3 [3-(N-Ac-L-Glu)-dextrorphan]
RESULT: label 1

QUERY: Answer whether the compound C[C@@H](N)C(=O)N[C@H](C)C(=O)Oc1ccc2c(c1)[C@]13CCCC[C@@H]1C(C2)N(C)CC3 [3-(D-Ala-D-Ala)-dextrorphan] has Exposure Ratio AUC strictly less than 80%
RESULT: label 1

QUERY: Determine if CC(=O)N[C@@H](Cc1ccccc1)C(=O)Oc1ccc2c(c1)[C@]13CCCC[C@@H]1[C@H](C2)N(C)CC3 [3-(N-Ac-L-Phe)-dextrorphan] shows Exposure Ratio AUC strictly lower than 80%.
RESULT: label 1
